Tested on: MOLM-13 cells
assay.protocol: MOLM-13 Cellular Assay
Assay type: cell-based
protocol.conditions: Homo sapiens, 72 hours exposure, cell viability by CellTiter-Glo
measured.parameter: log10 EC50 (log10 of the value in nM)
Record value = log10 of EC50 given in nM.

{"compound": "Cc1ccnc(Cl)c1NC(=O)c1cc(F)c(-n2nc(CF)n(C(C)C)c2=O)nc1O[C@@H](C)C(F)(F)F [Example 86]", "observed.measurement": 0.26}
{"compound": "CCn1c(CO)nn(-c2nc(O[C@@H](C)C(F)(F)F)c(C(=O)Nc3c[nH]nc3OC)cc2F)c1=O [Example 58]", "observed.measurement": 1.37}
{"compound": "CCn1c(CO)nn(-c2nc(O[C@@H](C)C(F)(F)F)c(C(=O)Nc3c(OC)cccc3OC)cc2F)c1=O [Example 119]", "observed.measurement": 0.17}
{"compound": "CCn1c(CO)nn(-c2nc(O[C@@H](C)C(F)(F)F)c(C(=O)Nc3c(C)n[nH]c3Cl)cc2F)c1=O [Example 25]", "observed.measurement": 0.48}
{"compound": "CCn1c(CF)nn(-c2nc(O[C@@H](C)C(F)(F)F)c(C(=O)Nc3c(C)n[nH]c3Cl)cc2F)c1=O [Example 96]", "observed.measurement": -0.49}
{"compound": "CCn1c(CO)nn(-c2nc(O[C@@H](C)C(F)(F)F)c(C(=O)Nc3ccc(C)nc3Cl)cc2F)c1=O [Example 77]", "observed.measurement": 1.12}

Qu. Request body: readout log10 EC50, system MOLM-13 cells, query CCn1c(CO)nn(-c2nc(O[C@@H](C)C(F)(F)F)c(C(=O)Nc3cccnc3Cl)cc2F)c1=O [Example 4] . Return the value.
Ans. 0.81

Qu. Field: log10 EC50 (MOLM-13 cells). Entry: CCn1c(CO)nn(-c2nc(O[C@@H](C)C(F)(F)F)c(C(=O)Nc3csnc3C)cc2F)c1=O [Example 17]
Ans. 1.94

Qu. Write down the reported log10 EC50 of CCn1c(CO)nn(-c2nc(O[C@@H](C)C(F)(F)F)c(C(=O)Nc3ccccc3F)cc2F)c1=O [Example 2] , test system: MOLM-13 cells.
Ans. 0.72

Qu. Under MOLM-13 cells: log10 EC50 value of CCn1c(CO)nn(-c2nc(O[C@@H](C)C(F)(F)F)c(C(=O)Nc3cnc(OC)cc3Cl)cc2F)c1=O [Example 50] ?
Ans. 0.26

* * *

Tested on: MOLM-13 cells
assay.protocol: MOLM-13 Cellular Assay
Type: cell-based
protocol.conditions: Homo sapiens, 72 hours exposure, cell viability by CellTiter-Glo
Binary label based on EC50 with cut-off 2 nM: below gives true (1), not below gives false (0).

Observe how each entry below is paired with its result.
{"smiles.text": "CCn1c(CO)nn(-c2nc(O[C@@H](C)C(F)(F)F)c(C(=O)Nc3c[nH]nc3C#N)cc2F)c1=O", "group": "false (0)"}
{"smiles.text": "CCn1c(CO)nn(-c2nc(O[C@@H](C)C(F)(F)F)c(C(=O)Nc3c(C)cc(C)nc3OC)cc2F)c1=O", "group": "true (1)"}
{"smiles.text": "CCn1c(CO)nn(-c2nc(O[C@@H](C)C(F)(F)F)c(C(=O)Nc3nccnc3OC)cc2F)c1=O", "group": "false (0)"}
{"smiles.text": "CCn1c(CCl)nn(-c2nc(O[C@@H](C)C(F)(F)F)c(C(=O)Nc3c(F)cccc3Cl)cc2F)c1=O", "group": "true (1)"}
{"smiles.text": "CCOc1ccnc(NC(=O)c2cc(F)c(-n3nc(CO)n(CC)c3=O)nc2O[C@@H](C)C(F)(F)F)c1Cl", "group": "false (0)"}
{"smiles.text": "CCn1c(CO)nn(-c2nc(O[C@@H](C)C(F)(F)F)c(C(=O)Nc3cnsc3Br)cc2F)c1=O", "group": "false (0)"}
{"smiles.text": "CCn1c(CO)nn(-c2nc(O[C@@H](C)C(F)(F)F)c(C(=O)Nc3c(N(C)C)ccnc3OC)cc2F)c1=O", "group": "false (0)"}
{"smiles.text": "CCn1c(CO)nn(-c2nc(O[C@@H](C)C(F)(F)F)c(C(=O)Nc3ncnc(C)c3Cl)cc2F)c1=O", "group": "false (0)"}

Qu. Please indicate whether the reported EC50 of "CCn1c(CO)nn(-c2nc(O[C@@H](C)C(F)(F)F)c(C(=O)Nc3c(C)cc(OC)nc3Cl)cc2F)c1=O" is strictly below 2 nM.
Ans. true (1)

* * *

Tested on: MOLM-13 cells
assay.protocol: MOLM-13 Cellular Assay
Type: cell-based
protocol.conditions: Homo sapiens, 72 hours exposure, cell viability by CellTiter-Glo
measured.parameter: pEC50
// returns pEC50 (minus log10 of molar concentration), number only

The cases that follow already have their pEC50 on record.
{"compound": "CCn1c(CO)nn(-c2nc(O[C@@H](C)C(F)(F)F)c(C(=O)Nc3c(Cl)ncc(C)c3C)cc2F)c1=O", "measurement.target": "MOLM-13 cells", "measured.parameter": "pEC50", "observed.measurement": 8.86}
{"compound": "CCn1c(CO)nn(-c2nc(O[C@@H](C)C(F)(F)F)c(C(=O)Nc3cc(OC)ncc3Cl)cc2F)c1=O", "measurement.target": "MOLM-13 cells", "measured.parameter": "pEC50", "observed.measurement": 7.38}
{"compound": "CCn1c(CO)nn(-c2nc(O[C@@H](C)C(F)(F)F)c(C(=O)Nc3c(C)ccnc3Cl)cc2F)c1=O", "measurement.target": "MOLM-13 cells", "measured.parameter": "pEC50", "observed.measurement": 8.70}

Qu. Item under review: CCn1c(CO)nn(-c2nc(OC3CCOC3)c(C(=O)Nc3c(F)cccc3Cl)cc2F)c1=O (racemic) . Reported pEC50?
Ans. 7.73

* * *

measurement.target: human DHODH (Homo sapiens, UniProt Q02127)
Sequence (Q02127 whole entry): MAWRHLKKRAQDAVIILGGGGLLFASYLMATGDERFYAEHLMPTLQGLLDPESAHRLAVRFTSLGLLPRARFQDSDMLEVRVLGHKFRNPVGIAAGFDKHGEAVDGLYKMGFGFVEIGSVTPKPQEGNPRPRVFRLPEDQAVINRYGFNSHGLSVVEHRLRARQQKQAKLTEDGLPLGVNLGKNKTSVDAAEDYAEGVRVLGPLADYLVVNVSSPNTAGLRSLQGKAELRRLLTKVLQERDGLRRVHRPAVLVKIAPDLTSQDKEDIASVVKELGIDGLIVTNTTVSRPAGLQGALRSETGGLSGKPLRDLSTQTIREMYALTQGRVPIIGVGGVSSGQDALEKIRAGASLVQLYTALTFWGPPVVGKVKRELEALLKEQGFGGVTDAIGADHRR
assay.protocol: DHODH Enzymatic Assay
protocol.conditions: purified human DHODH; DCIP absorbance, end-point mode
measured.parameter: pEC50
The value called pEC50 is obtained by taking minus log10 of the concentration in mol/L.

Please review the entries below; each comes with its answer.
{"smiles.text": "CCn1c(CO)nn(-c2nc(O[C@@H](C)C(F)(F)F)c(C(=O)Nc3[nH]c(=O)ccc3Cl)cc2F)c1=O", "pEC50": 7.87}
{"smiles.text": "CCn1c(CO)nn(-c2nc(O[C@@H](C)C(F)(F)F)c(C(=O)Nc3c(C)ncnc3Cl)cc2F)c1=O", "pEC50": 5.62}

Qu. Could you share which pEC50 value was measured for "CCn1c(CO)nn(-c2nc(O[C@@H](C)C(F)(F)F)c(C(=O)Nc3cc(C)ncc3F)cc2F)c1=O" ?
Ans. 6.70

Qu. Query (compound): "CCn1c(CO)nn(-c2nc(O[C@@H](C)C(F)(F)F)c(C(=O)Nc3cc(OC)ccc3F)cc2F)c1=O" ; field requested: pEC50
Ans. 7.87

Qu. Endpoint output: pEC50 of "CCn1c(CO)nn(-c2nc(O[C@@H](C)C(F)(F)F)c(C(=O)Nc3cnsc3Br)cc2F)c1=O" . Value?
Ans. 8.51

Qu. Need pEC50 of "CCn1c(CO)nn(-c2nc(O[C@@H](C)C(F)(F)F)c(C(=O)Nc3ncsc3C)cc2F)c1=O" , thanks.
Ans. 7.87

Qu. Fill blank: measured pEC50 of the compound "CCn1c(CO)nn(-c2nc(O[C@@H](C)C(F)(F)F)c(C(=O)Nc3c(C)cnc(OC)c3Cl)cc2F)c1=O" is ____.
Ans. 9.51

Qu. # get_value(readout='pEC50', item= "CCCn1c(CO)nn(-c2nc(O[C@@H](C)C(F)(F)F)c(C(=O)Nc3c(C)ccnc3Cl)cc2F)c1=O" )
Ans. 8.29

Qu. What value of pEC50 has been reported for the following compound? "CCn1c(CO)nn(-c2nc(O[C@@H](C)C(F)(F)F)c(C(=O)Nc3c(Cl)ccc(=O)n3C)cc2F)c1=O"
Ans. 7.00

Qu. Fill blank: measured pEC50 of the compound "CCn1c(CO)nn(-c2nc(O[C@@H](C)C(F)(F)F)c(C(=O)Nc3c(F)ccnc3OC)cc2F)c1=O" is ____.
Ans. 8.43

Qu. Which pEC50 is reported for this compound? "CCn1c(CO)nn(-c2nc(O[C@@H](C)C(F)(F)F)c(C(=O)Nc3ncc(OC)cc3Cl)cc2F)c1=O"
Ans. 8.33

Qu. Any idea what its pEC50 is? The compound is "CCn1c(CO)nn(-c2nc(O[C@@H](C)C(F)(F)F)c(C(=O)Nc3c(F)cnc(OC)c3Cl)cc2F)c1=O"
Ans. 8.92

Qu. Entry "CCn1c(CO)nn(-c2nc(O[C@@H](C)C(F)(F)F)c(C(=O)Nc3c(C)ccn(C)c3=O)cc2F)c1=O" : reported pEC50 = ?
Ans. 6.84

Qu. State the recorded pEC50 for this entry: "CCn1c(CO)nn(-c2nc(O[C@@H](C)C(F)(F)F)c(C(=O)Nc3ccccc3C)cc2F)c1=O"
Ans. 9.61

Qu. Which measured pEC50 value corresponds to "CCn1c(CO)nn(-c2nc(O[C@@H](C)C(F)(F)F)c(C(=O)Nc3nc(C)ccc3F)cc2F)c1=O" ?
Ans. 7.85

Where do the numbers come from? From patent US20220089568A1.
